Target: recombinant human PAI-1 (Homo sapiens, UniProt P05121)
Construct: purchased Molecular Innovations, Inc
Sequence (P05121 24-402): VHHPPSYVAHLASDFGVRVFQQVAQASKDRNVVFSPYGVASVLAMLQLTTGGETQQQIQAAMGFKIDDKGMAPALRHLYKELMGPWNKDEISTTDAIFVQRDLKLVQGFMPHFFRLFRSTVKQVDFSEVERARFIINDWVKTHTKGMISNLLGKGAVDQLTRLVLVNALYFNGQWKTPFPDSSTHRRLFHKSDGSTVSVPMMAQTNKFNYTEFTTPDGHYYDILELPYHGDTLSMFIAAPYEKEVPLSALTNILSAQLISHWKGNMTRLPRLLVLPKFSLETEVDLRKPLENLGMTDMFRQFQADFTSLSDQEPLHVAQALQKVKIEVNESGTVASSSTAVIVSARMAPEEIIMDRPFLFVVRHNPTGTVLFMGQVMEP
Assay: Test Example 2: human PAI-1 inhibitory activity (tPA fluorogenic substrate, pH 7.4 HEPES buffer)
Format: biochemical
Settings: human PAI-1; compound concentration 3 μM
reported-property: Inhibition Rate of PAI-1 Activity (%)

Would you please look over these solved cases?
# structure-smiles, test-system, assay-result
measured = [
    ("CCCCc1ccc(Oc2cc(-c3ccc(OC(F)(F)F)cc3)ccc2OCC(=O)O)cc1", "recombinant human PAI-1 (Homo sapiens, UniProt P05121)", ">99%"),
    ("O=C(O)C(=O)N(CCCCc1ccccc1)c1cc(-c2ccc(OC(F)(F)F)cc2)ccc1OC1CCCC1", "recombinant human PAI-1 (Homo sapiens, UniProt P05121)", ">99%"),
]

Query: Inhibition Rate of PAI-1 Activity (%); subject: "CCCCCCCOc1ccc(-c2ccc(OC(F)(F)F)cc2)cc1N(CCCCc1ccccc1)C(=O)C(=O)O" 91%
